All figures here come from paper PMC5831597.

test: Transport of rhein across the Caco-2 cell monolayer (A to B, B to A); assay type: in vitro ADME, human; conditions: human, Caco-2; rhein 27.3 μg/ml; PE, RPE, TWCQT 1 mg/ml; read-out: ER PBA/PAB of rhein
REPORTED ENDPOINT: efflux ratio at 150 min, 27.3 μg/ml
Give bare numbers.

Could you share which efflux ratio at 150 min, 27.3 μg/ml value was measured for `O=C(O)c1cc(O)c2c(c1)C(=O)c1cccc(O)c1C2=O` ?
2.83

###

test system: P-gp; experiment: Transport of rhein across the Caco-2 cell monolayer (A to B, B to A); assay type: in vitro ADME, human; conditions: human, Caco-2, with verapamil 50 μmol/ml, loaded onto the A side; rhein 27.3 μg/ml; verapamil 50 μmol/ml (P-gp inhibitor); read-out: ER of rhein in presence of verapamil
REPORTED ENDPOINT: efflux ratio at 150 min, 27.3 μg/ml
Answers are plain numbers.

Give the reported efflux ratio at 150 min, 27.3 μg/ml for `O=C(O)c1cc(O)c2c(c1)C(=O)c1cccc(O)c1C2=O` (system: P-gp).
2.12
